Listed here: items and their measured folding stability dG unfold.
Assay: folding stability dG unfold from chymotrypsin proteolysis; higher = more stable
State just the number; it will be interpreted in kcal/mol.

Solved entries (count: 3):
>>> print(df.to_string())
                           residue_sequence  recorded_value
0  SAGGMKKYKIKVENLPPGARIITPDGREIKPGEEVEIELPEDVKEIYVILPDGKIVKVKVEEVEPEEESAGG [r13_441_TrROS_Hall]            4.31
1  SAGGSAGGSELEKALASAKPGEEVTVTVESTTPDGTPSVEIVEVKVEAETPSPGKENLEKNRLVSAGGSAGG [r6_893_JUSTAS]          0.0837
2  SAGGSAGGSSKNGKPKPTIKVEMPDKPGPHEIPIPESDPDEAKTLAEELAQKWPGVPVRIEPTSAGGSAGGS [r12_601_TrROS]           0.989

### Prompt Let me know recorded folding stability dG unfold for SAGGMKPGEKTIRLLLKLPPGEELTPEQVEELAKRLAEELREKGYEVEVEVVERDGELYVLVEVRFPESAGG [r13_442_TrROS_Hall] , thanks.
### Response 4.28

### Prompt Read the entry SAGGSAGGSKKPPIYKIEIEIDGKKLTIEAKSKEEALKALKEELKKKYPNLKITKIKIEKVKPSAGGSAGGS [r12_429_TrROS_Hall] and write its reported folding stability dG unfold.
### Response 2.4

### Prompt Return folding stability dG unfold (reported value) for this sequence: SAGGSAGGKEFEIEKVEITVENGTITIRMIVRDKETNEYYEVEKTITFDPETKELHVEIKVKKVSAGGSAGG [r6_604_TrROS_Hall]
### Response 3.23

### Prompt Could you please provide reported folding stability dG unfold for SAGGSAGGSMEVTYDEETGELTVRIEVDGKTLTLKFKSIEDLKAALEKLGIDVDDVKIVEIEPSAGGSAGGS [r12_834_TrROS_Hall] ? Thanks!
### Response 4.75

### Prompt For the sequence SAGGSMSLEGVSTVSEEKFPEKPTTLVPLTYPDGTTVEANRTLDPVTGKWTLPVTTPDGTVVVVDESAGGSA [r2_490_JUSTAS] , report folding stability dG unfold.
### Response 0.487

### Prompt In one line, give reported folding stability dG unfold of the entry SAGGGSMLIRRRLLLVERIEDGLLTYDIEEEVYLPLPEPEVPVSVERRPDGSLVLTFPDGTRRLLPRSAGGS [r16_136_JUSTAS] .
### Response 2.39

### Prompt Give a short answer stating reported folding stability dG unfold for SAGGSAGGSNEKKYIYRAKITIPGKEGEKPFEIEFESEEEVIELVEKLFPKENIKLEVEKFELDSAGGSAGG [r6_113_TrMRF] .
### Response 2.51

### Prompt # return recorded folding stability dG unfold for input SAGGSAGGPPGEPPDVKVIPIEIEHERYNPDDGEMEVETIPFPIVIAPDGTIYHGDRPIPPDDISAGGSAGG [r6_515_TrROS]
### Response 1.41

### Prompt Give the reported folding stability dG unfold for this sequence. SAGGSAMDAKVVDLSLPFTLSEDGSLTATVTIEFPDGSKVPIEIPGREDGELKLEEILAAAKEALGSAGGSA [r15_233_TrMRF]
### Response 0.27

### Prompt Find the measured folding stability dG unfold of SAGGSAGGSTVEELKKKAKELGLEVTVEKNKKDKKKITITVSEEAKKKLKEIAKEENIKVEIKSAGGSAGGS [r12_74_TrROS_Hall] and report it.
### Response 0.0632

### Prompt Report folding stability dG unfold, nothing else, for this sequence: SMETLEIEITVKVEKDENGKIRKVSVEELKEELEKAGFKITEIEITEVTENTVKIKIKIEKPEEEEEEEESA [r9_225_TrROS_Hall]
### Response 3.26
